# Subject Of Test: T1, human IL-18 binding protein (human, UniProt O95998 31-194)
# T1 sequence (looked up): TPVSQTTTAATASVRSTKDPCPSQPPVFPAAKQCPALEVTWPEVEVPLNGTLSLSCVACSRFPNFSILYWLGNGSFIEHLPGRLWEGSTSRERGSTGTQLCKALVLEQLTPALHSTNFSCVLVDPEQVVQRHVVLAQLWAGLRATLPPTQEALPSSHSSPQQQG
# Experiment Notes: cell-based or functional assay; also: unit not given here
Assay Endpoint: HEK-Blue activity, +100 nM BP, DF-1,000,000
The answer should be written as a number, with no unit following it.

Known results for binders:
yeast display IL-18 variant K53Q, D54N, S55M, Q56H (ligand) YFGKLESKLSVIRNLNDQVLFIDQGNRPLFEDMTDSDMRDNAPRTIFIISMYQNMHPRGMAVTISVKSEKISTLSSENKIISFKEMNPPDNIKDTKSDIIFFQRSVPGHDNKMQFESSSYEGYFLASEKERDLFKLILKKEDELGDRSIMFTVQNED
0.09
yeast display IL-18 variant K53T, S55F (ligand) YFGKLESKLSVIRNLNDQVLFIDQGNRPLFEDMTDSDMRDNAPRTIFIISMYTDFQPRGMAVTISVKSEKISTLSSENKIISFKEMNPPDNIKDTKSDIIFFQRSVPGHDNKMQFESSSYEGYFLASEKERDLFKLILKKEDELGDRSIMFTVQNED
0.25

# next binder below
Item under review: yeast display IL-18 variant K53D, S55N (ligand) YFGKLESKLSVIRNLNDQVLFIDQGNRPLFEDMTDSDMRDNAPRTIFIISMYDDNQPRGMAVTISVKSEKISTLSSENKIISFKEMNPPDNIKDTKSDIIFFQRSVPGHDNKMQFESSSYEGYFLASEKERDLFKLILKKEDELGDRSIMFTVQNED . Reported HEK-Blue activity, +100 nM BP, DF-1,000,000?
0.09
